assay.target: T1, Purified recombinant human CD26 (rhDipeptidyl peptidase IV), R&D Systems CAT #1180-SE (human, UniProt P27487 29-766)
T1 construct: Bought recombinant protein; also called hu-CD26; soluble human CD26
T1 sequence (P27487 29-766 limits assumed): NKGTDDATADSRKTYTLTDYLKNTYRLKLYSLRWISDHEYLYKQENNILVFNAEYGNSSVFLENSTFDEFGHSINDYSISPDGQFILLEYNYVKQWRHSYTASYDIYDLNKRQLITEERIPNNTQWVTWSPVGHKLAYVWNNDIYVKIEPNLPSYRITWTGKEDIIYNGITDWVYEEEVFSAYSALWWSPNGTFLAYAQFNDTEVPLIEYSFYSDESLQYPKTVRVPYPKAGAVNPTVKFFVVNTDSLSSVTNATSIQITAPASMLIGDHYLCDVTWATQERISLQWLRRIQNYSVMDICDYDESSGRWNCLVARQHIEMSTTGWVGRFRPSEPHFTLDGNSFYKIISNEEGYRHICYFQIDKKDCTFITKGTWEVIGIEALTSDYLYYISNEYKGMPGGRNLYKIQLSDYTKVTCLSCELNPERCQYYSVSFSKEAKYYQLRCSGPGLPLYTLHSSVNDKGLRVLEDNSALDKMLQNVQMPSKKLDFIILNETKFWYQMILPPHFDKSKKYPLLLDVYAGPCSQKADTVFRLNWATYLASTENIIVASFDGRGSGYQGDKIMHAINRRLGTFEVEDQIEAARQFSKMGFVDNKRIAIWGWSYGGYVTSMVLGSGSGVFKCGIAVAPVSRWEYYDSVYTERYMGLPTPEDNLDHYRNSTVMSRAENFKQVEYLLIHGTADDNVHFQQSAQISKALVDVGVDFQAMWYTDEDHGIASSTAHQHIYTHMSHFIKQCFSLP
method: SPR (Biacore), CD26 preoccupied by the Fab; competitor 14D10 ascites
test.readout: percent decrease in binding of 14D10 to CD26

Requested field: percent decrease in binding of 14D10 to CD26. Item: CM03 Fab X369 (Fab, V domains shown, Recombinant Fab made in E. coli; also called CM03 X369; CM03 (X369)) VH: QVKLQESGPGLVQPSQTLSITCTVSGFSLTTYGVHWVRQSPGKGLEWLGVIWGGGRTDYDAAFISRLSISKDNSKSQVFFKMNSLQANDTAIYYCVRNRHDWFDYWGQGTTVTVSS VL: DIQMTQSPSSLSASLGDRVTITCSASQGIRNSLNWYQQKPDGAVKLLIYYSSNLHSGVPSRFSGSGSGTDFSLTISNLEPEDIATYYCQQSIKLPFTFGSGTKLEIK ≥ 80%
